Target: UniProt Q8WUI4
Sequence (Q8WUI4 whole entry): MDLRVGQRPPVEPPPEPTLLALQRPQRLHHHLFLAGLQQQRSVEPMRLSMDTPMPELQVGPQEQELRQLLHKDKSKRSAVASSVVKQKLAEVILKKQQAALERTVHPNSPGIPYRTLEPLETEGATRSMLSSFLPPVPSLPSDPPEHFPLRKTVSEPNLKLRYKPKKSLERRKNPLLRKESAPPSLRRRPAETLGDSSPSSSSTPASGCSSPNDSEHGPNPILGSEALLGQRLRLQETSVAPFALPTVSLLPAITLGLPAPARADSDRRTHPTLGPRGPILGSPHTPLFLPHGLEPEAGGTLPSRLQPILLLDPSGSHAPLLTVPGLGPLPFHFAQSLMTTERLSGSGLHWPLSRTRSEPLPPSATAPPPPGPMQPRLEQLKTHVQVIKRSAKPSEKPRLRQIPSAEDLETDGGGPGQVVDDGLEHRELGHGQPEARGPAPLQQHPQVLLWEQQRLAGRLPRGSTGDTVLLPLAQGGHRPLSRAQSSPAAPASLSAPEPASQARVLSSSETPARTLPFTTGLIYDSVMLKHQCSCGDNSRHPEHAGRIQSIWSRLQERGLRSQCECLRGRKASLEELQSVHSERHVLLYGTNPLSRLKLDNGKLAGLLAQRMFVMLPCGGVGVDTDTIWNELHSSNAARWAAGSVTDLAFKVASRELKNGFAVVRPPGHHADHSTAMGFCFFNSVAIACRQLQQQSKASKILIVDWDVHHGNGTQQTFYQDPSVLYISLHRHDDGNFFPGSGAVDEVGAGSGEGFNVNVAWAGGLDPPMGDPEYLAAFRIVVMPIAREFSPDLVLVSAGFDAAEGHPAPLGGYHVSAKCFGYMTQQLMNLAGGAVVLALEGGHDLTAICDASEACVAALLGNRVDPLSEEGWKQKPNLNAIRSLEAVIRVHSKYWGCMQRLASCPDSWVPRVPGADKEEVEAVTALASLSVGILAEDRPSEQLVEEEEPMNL
Assay: Inhibition of human HDAC7 using fluorogenic HDAC substrate
measurement label: IC50

chemical string: O=C(NO)c1ccc(CN2c3ccccc3C[C@@H]3CCCC[C@H]32)cc1
IC50: > 30 µM

Next up:
Noted for "O=C(NO)c1ccc(CN2c3ccccc3CC[C@@H]3CCCC[C@H]32)cc1" : its IC50 reads > 30 µM

* * *

Biological target: Histone deacetylase 1 (Homo sapiens, UniProt Q13547)
Sequence (Q13547 whole entry): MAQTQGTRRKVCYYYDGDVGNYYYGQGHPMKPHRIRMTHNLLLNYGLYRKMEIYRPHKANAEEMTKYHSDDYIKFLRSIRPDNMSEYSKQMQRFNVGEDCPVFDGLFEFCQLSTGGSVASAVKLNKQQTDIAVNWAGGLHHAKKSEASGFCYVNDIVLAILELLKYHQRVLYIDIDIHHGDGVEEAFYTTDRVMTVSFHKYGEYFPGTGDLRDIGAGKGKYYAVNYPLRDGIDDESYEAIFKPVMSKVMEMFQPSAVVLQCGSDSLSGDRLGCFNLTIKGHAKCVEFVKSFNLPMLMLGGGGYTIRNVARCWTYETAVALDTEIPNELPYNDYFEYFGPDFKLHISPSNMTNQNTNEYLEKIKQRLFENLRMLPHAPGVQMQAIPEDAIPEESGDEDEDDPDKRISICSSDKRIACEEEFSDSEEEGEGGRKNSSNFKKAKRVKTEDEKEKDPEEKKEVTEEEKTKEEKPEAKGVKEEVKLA
Assay: Inhibition of recombinant human GST-tagged HDAC1 expressed in baculovirus infected Sf9 insect cells Fluor-de-lys as substrate measured after 2 hrs by fluorescence assay
// reported pIC50 for each item listed
Lab note: report pIC50 as minus log10 of the concentration in molar units, number only.

Previously resolved entries follow.
chemical string: CCC(CC)CN(CC)Cc1c(C)nc2cc(/C=C/C(=O)NO)ccn12
pIC50: 8.00
//
chemical string: CCCCc1nc2cc(/C=C/C(=O)NO)ccn2c1CN(CC)CCCC
pIC50: 7.22
//
chemical string: CN(Cc1c(C(C)(C)C)nc2cc(/C=C/C(=O)NO)ccn12)CC(C)(C)C
pIC50: 6.11

Next up:
For the compound "CCCCNCc1c(CCCC)nc2cc(/C=C/C(=O)NO)ccn12" , the measured pIC50 on Histone deacetylase 1 (Homo sapiens, UniProt Q13547) was 7.70

Provenance of the data: ChEMBL document CHEMBL4422610
